# tgt: GABA-A receptor; alpha-3/beta-3/gamma-2 (Homo sapiens, UniProt P18507+P28472+P34903)
# Sequence (P18507 whole entry): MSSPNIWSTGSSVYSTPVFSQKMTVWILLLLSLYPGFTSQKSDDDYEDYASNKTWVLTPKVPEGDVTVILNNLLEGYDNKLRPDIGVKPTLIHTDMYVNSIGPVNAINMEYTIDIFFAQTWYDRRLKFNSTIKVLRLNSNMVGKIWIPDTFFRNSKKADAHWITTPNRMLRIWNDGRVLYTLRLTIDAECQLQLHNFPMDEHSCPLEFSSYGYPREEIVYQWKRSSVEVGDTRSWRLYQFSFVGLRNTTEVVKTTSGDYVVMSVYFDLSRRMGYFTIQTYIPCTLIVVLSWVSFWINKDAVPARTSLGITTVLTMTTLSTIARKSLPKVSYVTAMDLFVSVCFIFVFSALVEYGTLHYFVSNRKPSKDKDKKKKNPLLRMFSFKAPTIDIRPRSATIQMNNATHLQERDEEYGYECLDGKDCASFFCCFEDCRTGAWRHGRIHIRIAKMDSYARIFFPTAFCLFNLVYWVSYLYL
# Sequence (P28472 whole entry): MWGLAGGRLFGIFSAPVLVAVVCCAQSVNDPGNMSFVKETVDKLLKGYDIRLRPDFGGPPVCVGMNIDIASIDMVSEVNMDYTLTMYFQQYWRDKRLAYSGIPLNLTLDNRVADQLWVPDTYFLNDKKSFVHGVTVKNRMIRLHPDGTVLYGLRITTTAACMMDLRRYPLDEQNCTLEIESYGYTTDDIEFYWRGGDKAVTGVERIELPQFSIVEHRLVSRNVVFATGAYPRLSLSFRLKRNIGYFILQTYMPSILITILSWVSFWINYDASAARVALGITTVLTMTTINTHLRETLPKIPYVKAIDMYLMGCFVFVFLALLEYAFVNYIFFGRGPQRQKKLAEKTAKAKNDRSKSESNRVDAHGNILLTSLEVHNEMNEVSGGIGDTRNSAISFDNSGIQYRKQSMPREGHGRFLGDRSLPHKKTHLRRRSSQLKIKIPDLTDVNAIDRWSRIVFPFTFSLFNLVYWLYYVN
# Sequence (P34903 whole entry): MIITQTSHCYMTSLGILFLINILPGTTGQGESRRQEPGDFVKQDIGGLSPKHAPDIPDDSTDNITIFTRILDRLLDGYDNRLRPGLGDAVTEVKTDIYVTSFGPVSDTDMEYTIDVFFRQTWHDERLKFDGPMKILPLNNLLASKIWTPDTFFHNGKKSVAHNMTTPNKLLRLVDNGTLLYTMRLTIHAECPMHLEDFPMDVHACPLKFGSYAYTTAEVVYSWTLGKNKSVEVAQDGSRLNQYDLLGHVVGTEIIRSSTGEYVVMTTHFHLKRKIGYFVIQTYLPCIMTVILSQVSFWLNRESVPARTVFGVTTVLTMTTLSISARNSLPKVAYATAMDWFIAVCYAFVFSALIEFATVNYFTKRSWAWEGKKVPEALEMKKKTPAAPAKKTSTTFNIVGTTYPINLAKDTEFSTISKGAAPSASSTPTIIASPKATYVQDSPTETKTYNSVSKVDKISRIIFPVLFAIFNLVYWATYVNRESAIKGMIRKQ
# run.description: In vitro inhibition of [3H]-Ro- 15-1788 binding to human GABA-A receptor alpha-3-beta-3-gamma-2 subunits expressed in L(tk-)cells
observed.property: Ki

| smiles.code | reported.value |
| --- | --- |
| C#Cc1ccc2c(c1)C(=O)N(C)Cc1c(C(=O)OCCCOC(=O)c3ncn4c3CN(C)C(=O)c3cc(C#C)ccc3-4)ncn1-2 | 858 nM |
